Taken from patent US20220396632A1.

Biological target: T1, Human complement C4 protein (Millipore Sigma, Cat. 204886) (human, UniProt P0C0L4 20-675; P0C0L4 680-1446; P0C0L4 1454-1744, limits assumed, natural sulfotyrosines)
T1 construct: mature
T1 sequence (P0C0L4 20-675 limits assumed, form in doubt, chain 1 of 3): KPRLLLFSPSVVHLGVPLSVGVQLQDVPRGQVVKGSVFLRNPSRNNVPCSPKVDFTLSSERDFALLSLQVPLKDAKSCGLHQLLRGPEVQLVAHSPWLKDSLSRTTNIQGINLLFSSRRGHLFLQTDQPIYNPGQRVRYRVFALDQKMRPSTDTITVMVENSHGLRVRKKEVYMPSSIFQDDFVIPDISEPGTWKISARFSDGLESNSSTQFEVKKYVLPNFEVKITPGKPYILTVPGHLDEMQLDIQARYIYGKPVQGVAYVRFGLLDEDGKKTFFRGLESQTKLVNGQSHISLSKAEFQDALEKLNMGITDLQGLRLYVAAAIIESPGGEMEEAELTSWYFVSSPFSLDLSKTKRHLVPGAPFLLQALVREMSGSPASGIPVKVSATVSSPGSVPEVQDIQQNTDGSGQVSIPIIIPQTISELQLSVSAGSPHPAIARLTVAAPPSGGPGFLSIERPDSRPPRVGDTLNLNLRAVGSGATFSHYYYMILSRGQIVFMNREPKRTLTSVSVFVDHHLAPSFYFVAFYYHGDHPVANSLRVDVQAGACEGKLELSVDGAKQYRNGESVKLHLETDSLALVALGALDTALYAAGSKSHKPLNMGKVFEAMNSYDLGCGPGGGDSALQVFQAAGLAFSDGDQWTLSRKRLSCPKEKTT
T1 sequence (P0C0L4 680-1446 limits assumed, form in doubt, chain 2 of 3): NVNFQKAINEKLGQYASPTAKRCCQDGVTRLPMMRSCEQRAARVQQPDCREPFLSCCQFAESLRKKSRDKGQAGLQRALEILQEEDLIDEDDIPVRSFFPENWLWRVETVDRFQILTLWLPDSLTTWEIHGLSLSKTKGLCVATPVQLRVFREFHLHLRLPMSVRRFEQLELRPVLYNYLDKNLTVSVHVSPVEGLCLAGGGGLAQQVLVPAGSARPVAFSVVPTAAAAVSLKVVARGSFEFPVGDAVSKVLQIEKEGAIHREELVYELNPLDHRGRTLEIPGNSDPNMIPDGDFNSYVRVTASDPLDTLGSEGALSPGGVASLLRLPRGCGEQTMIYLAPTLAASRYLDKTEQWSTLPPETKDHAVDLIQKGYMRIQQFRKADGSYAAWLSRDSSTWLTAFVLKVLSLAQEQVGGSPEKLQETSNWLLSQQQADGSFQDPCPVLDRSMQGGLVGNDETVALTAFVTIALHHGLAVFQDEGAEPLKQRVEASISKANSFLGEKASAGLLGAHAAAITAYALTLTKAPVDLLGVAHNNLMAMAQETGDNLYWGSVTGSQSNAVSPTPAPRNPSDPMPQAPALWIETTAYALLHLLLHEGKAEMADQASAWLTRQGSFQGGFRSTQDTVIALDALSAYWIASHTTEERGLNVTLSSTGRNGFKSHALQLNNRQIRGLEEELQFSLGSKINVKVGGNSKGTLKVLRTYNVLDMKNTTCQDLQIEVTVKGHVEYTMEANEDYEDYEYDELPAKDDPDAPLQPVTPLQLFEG
T1 sequence (P0C0L4 1454-1744 limits assumed, form in doubt, chain 3 of 3): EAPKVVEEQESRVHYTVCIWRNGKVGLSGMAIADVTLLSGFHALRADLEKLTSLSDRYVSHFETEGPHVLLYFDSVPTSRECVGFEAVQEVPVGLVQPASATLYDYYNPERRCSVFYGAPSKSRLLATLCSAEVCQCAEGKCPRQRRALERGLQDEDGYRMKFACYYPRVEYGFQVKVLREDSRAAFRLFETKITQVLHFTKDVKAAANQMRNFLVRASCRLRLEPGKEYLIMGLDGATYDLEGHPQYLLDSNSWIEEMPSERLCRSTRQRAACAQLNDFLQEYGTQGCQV
Experiment: ELISA, 50 nM mAb
Assign binding normalized to PSGL-1 to each entry below.

Enquiry: Which binding normalized to PSGL-1 is listed for 01A04 (antibody, IgG4, V domains shown) VH: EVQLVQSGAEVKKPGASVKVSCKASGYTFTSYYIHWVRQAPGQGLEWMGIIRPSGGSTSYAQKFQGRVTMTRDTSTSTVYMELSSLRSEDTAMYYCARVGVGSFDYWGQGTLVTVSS VL: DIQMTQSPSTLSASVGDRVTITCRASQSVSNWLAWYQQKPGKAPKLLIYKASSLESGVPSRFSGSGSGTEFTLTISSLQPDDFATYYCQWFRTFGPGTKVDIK ?
Return: 0.87

Enquiry: # repeat for 05E08 (antibody, IgG4, V domains shown) VH: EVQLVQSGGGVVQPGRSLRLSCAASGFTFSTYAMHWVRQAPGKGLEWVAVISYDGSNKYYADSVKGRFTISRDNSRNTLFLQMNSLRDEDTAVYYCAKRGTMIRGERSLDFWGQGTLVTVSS VL: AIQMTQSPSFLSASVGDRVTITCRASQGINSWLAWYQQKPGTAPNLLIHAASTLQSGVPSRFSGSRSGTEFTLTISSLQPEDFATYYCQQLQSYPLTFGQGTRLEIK
Return: 1.04

Others:
Enquiry: Which binding normalized to PSGL-1 is listed for 07E07 (antibody, IgG4, V domains shown) VH: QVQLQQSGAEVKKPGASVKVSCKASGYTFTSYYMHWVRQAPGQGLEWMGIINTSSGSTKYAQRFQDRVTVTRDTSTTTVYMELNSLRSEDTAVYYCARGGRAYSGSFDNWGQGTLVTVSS VL: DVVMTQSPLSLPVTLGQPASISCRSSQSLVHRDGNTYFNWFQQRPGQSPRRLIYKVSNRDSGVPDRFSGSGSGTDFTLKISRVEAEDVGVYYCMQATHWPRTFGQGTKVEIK ?
Return: 1.04
